Exercise: state measured TGI for each of the compounds provided.
# Tested on: MCF7 breast
# Test summary: NCI tumour cell line growth inhibition, 48 h
Form entry: value (µM) — number only.

Ask | Would you mind telling me what TGI value was observed for O=C1OCC2=C1C(c1cccc(Cl)c1)c1cc3c(cc1N2CCO)CCC3 (centres undefined) ?
Reply | 12.9

Ask | Would you mind telling me what TGI value was observed for `CCCCCCCCCCCCCCCCCCOc1ccccc1COP(=O)(O)OOCC[N+](C)(C)C` ?
Reply | 3.32

Ask | Would you mind telling me what TGI value was observed for `OC(Cc1cc(CC(O)(C(F)(F)F)C(F)(F)F)nc(CC(O)(C(F)(F)F)C(F)(F)F)c1)(C(F)(F)F)C(F)(F)F` ?
Reply | 9.06

Ask | Would you mind telling me what TGI value was observed for CCN(CC)CC(O)c1cc(-c2ccc(Cl)cc2)nc2c(C)c(Cl)ccc12 (centres undefined) ?
Reply | 2.9

Ask | Would you mind telling me what TGI value was observed for `COc1ccc(/C=C/C(=O)CCN2CCN(CCC(=O)/C=C/c3ccc(OC)cc3)CC2)cc1` ?
Reply | 13.6

Ask | Would you mind telling me what TGI value was observed for `CC(=O)ON=C1C=CC(=C(C#N)c2ccccc2)C=C1` ?
Reply | 12.8

Ask | Would you mind telling me what TGI value was observed for `C=C(Br)COc1ccc2c(C)cc(=O)oc2c1` ?
Reply | 19.7

Ask | Would you mind telling me what TGI value was observed for `C[C@]12CC[C@H]3[C@@H](CC[C@]4(O)C[C@@H](O[C@@H]5O[C@H](CO)[C@@H](O[C@@H]6OC[C@@H](O)[C@H](O)[C@H]6O)[C@H](O)[C@H]5O)CC[C@]34C=O)[C@@]1(O)CC[C@@H]2C1=CC(=O)OC1` ?
Reply | 7.57

Ask | Would you mind telling me what TGI value was observed for `COc1ncc(-c2ccc3nccc(C#CCCCCC(=O)NO)c3c2)cc1NS(=O)(=O)c1ccc(F)cc1F` ?
Reply | 4.45

Ask | Would you mind telling me what TGI value was observed for `C#CCn1c(=O)ccn(/C(=C/C(=O)OCC)C(=O)OCC)c1=O` ?
Reply | 13

Ask | Would you mind telling me what TGI value was observed for COC1C(=O)CCC2(CO2)C1(O)C1(C)OC1CC=C(C)C (centres undefined) ?
Reply | 53

Ask | Would you mind telling me what TGI value was observed for `O=C(NC(OCc1ccccc1)(C(F)(F)F)C(F)(F)F)OCc1ccccc1` ?
Reply | 30.1

Ask | Would you mind telling me what TGI value was observed for `O=C(CCN1CCCN(c2cnc3ccccc3n2)CC1)c1csc2ccccc12` ?
Reply | 16.4

Ask | Would you mind telling me what TGI value was observed for `CCCCOC(=O)c1c(C)[nH]c(/C=C2\N=C(c3ccc[nH]3)C=C2OC)c1C` ?
Reply | 2.65

Ask | Would you mind telling me what TGI value was observed for `Nc1c(C(=O)Nc2cccc(C(F)(F)F)c2)sc2nc3c(cc12)CCCCCC3` ?
Reply | 11.2

Ask | Would you mind telling me what TGI value was observed for `O=C(CN1CCN(C(=O)c2ccco2)CC1)Nc1ccc(Cl)cc1C(=O)c1ccccc1Cl` ?
Reply | 21.7

Ask | Would you mind telling me what TGI value was observed for `COc1cc2c(cc1[N+](=O)[O-])C(=O)C(Br)(Br)CCC2` ?
Reply | 5.33

Taken from PubChem BioAssay (NCI).
